- system under test: BRG1 (Homo sapiens, UniProt P51532)
- Sequence (P51532 1448-1575): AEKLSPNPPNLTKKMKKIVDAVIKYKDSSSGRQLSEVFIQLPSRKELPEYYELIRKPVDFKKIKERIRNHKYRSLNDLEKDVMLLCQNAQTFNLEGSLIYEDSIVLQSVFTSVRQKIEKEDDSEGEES
- protocol notes: biochemical
- Assay type: binding
- measurement context: BRG1 HTRF IC50 (µM)
Label 1 (yes) when IC50 is strictly below 0.04 µM; at or above that, label 0 (no).

Challenge: Please determine if Nc1nnc(-c2ccccc2O)cc1C1=CCN(Cc2ccccc2)CC1 is below 0.04 µM in terms of IC50.
Response given: 1 (yes)

Challenge: Please determine if CS(=O)(=O)N1CCN(c2cc(-c3ccccc3O)nnc2N)CC1Cc1ccccc1 (stereo not drawn) is below 0.04 µM in terms of IC50.
Response given: 1 (yes)

Challenge: Please determine if CC(C)(O)C1CCN(c2cc(-c3ccccc3O)nnc2N)CC1 is below 0.04 µM in terms of IC50.
Response given: 1 (yes)

Challenge: Please determine if Nc1nnc(-c2ccccc2O)cc1N1CCN(c2ccccc2)CC1 is below 0.04 µM in terms of IC50.
Response given: 1 (yes)

Challenge: Please determine if C[C@H]1CN(c2cc(-c3ccccc3O)nnc2N)CCN1C(=O)[C@@H]1CCCO1 is below 0.04 µM in terms of IC50.
Response given: 0 (no)

Challenge: Please determine if Cc1cc(CC(=O)N2CCN(c3cc(-c4ccccc4O)nnc3N)CC2C)on1 (stereo not drawn) is below 0.04 µM in terms of IC50.
Response given: 0 (no)

Challenge: Please determine if Nc1nnc(-c2ccccc2O)cc1C1CCN(Cc2ccccc2)CC1 is below 0.04 µM in terms of IC50.
Response given: 0 (no)

Challenge: Please determine if Nc1nnc(-c2ccccc2O)cc1O[C@H]1CCCC[C@@H]1c1ccccc1 is below 0.04 µM in terms of IC50.
Response given: 0 (no)

Challenge: Please determine if CCS(=O)(=O)N1CCN(c2cc(-c3ccccc3O)nnc2N)CC1C (stereo not drawn) is below 0.04 µM in terms of IC50.
Response given: 1 (yes)

====

- system under test: BRM (Isoform 2) Bromodomain (Homo sapiens)
- Sequence (P51531 1377-1486 isoform P51531-2): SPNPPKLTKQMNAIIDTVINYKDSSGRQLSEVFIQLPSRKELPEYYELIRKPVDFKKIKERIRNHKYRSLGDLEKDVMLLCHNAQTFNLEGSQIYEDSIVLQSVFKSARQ
- protocol notes: biochemical
Could you please report measured pIC50 for the items listed next?
Answers are plain numbers, as −log10 of the molar value.

• CC1CN(c2cc(-c3ccccc3O)nnc2N)CC(C)O1 (racemic) = 7.16
• Nc1nnc(-c2ccccc2O)cc1C1CCCC1 = 7.60
• CC(COc1cc(-c2ccccc2O)nnc1N)c1ccccc1 (stereo not shown) = 8.14
• CC(=O)N1CCN(c2cc(-c3ccccc3O)nnc2N)CC1 = 7.14
• Nc1nnc(-c2ccccc2O)cc1N1CC2CCC(C1)N2Cc1ccccc1 = 7.10

Kindly give each listed record's pIC50.
1. CC(c1ccccc1)N1CCN(c2cc(-c3ccccc3O)nnc2N)CC1 (stereo not shown)
2. CC(c1ccccc1)n1cc(-c2cc(-c3ccccc3O)nnc2N)cn1 (stereo not shown)

Response given:
[7.44, 8.24]

Kindly give each listed record's pIC50.
1. Nc1nnc(-c2ccccc2O)cc1OCCc1ccccc1
2. Nc1nnc(-c2ccccc2O)cc1C1CCN(S(=O)(=O)c2ccccc2)C1 (stereo not shown)
3. CC(Oc1cc(-c2ccccc2O)nnc1N)C1CCOCC1 (stereo not shown)
4. C[C@H](Oc1cc(-c2ccccc2O)nnc1N)c1ccccc1

Response given:
1: 7.72; 2: 6.33; 3: 6.71; 4: 7.83

Kindly give each listed record's pIC50.
1. CN(C)CC1CCN(c2cc(-c3ccccc3O)nnc2N)CC1
2. CN(C)Cc1ccc(-c2cc(-c3ccccc3O)nnc2N)cc1
3. CNc1ccc(-c2ccccc2O)nn1
4. Nc1nnc(-c2ccccc2O)cc1N1CC(Oc2ccccc2)C1
5. Cn1cc(-c2cc(-c3ccccc3O)nnc2N)cn1
6. CC1CN(c2cc(-c3ccccc3O)nnc2N)CCN1C(=O)C(C)(C)C (stereo not shown)

Response given:
1: 7.65; 2: 7.31; 3: 5.98; 4: 7.45; 5: 8.00; 6: 7.74

Kindly give each listed record's pIC50.
1. Nc1nnc(-c2ccccc2O)cc1N1C[C@H]2CN(Cc3ccccc3)C[C@H]2C1
2. Nc1nnc(-c2ccccc2O)cc1OC1CCN(Cc2ccccc2)C1 (stereo not shown)

Response given:
1. 7.32
2. 7.22
